A short record of IC50 observed with Histone deacetylase 1 (Homo sapiens, UniProt Q13547) follows.
Sequence (Q13547 whole entry): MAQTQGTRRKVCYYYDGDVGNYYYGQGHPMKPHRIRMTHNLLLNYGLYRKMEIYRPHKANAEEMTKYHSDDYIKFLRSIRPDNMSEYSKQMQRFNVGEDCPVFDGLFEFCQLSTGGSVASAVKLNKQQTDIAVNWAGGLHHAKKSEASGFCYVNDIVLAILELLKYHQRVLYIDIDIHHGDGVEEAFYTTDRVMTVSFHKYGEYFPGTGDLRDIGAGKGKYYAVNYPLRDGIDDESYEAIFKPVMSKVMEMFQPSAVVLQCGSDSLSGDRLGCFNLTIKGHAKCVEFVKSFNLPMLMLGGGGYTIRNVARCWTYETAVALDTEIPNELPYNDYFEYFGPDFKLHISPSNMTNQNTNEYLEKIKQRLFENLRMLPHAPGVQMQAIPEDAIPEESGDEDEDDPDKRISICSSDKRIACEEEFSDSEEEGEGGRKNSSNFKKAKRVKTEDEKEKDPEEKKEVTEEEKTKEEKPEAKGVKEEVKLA
Measured Property: IC50 (nM)

Worked examples, 6 molecules total:
[
  {
    "Molecule": "NCCn1c(C2CC2c2ccccc2)nc2cc(/C=C/C(=O)NO)ccc21 (stereo unspecified)",
    "Experimental System": "Histone deacetylase 1 (Homo sapiens, UniProt Q13547)",
    "IC50 [nM]": 84
  },
  {
    "Molecule": "CCCCc1nc2cc(/C=C/C(=O)NO)ccc2n1C1CCN(C)C1 (stereo unspecified)",
    "Experimental System": "Histone deacetylase 1 (Homo sapiens, UniProt Q13547)",
    "IC50 [nM]": 125
  },
  {
    "Molecule": "CCCCCc1nc2cc(/C=C/C(=O)NO)ccc2n1C1CCCN(C)C1 (stereo unspecified)",
    "Experimental System": "Histone deacetylase 1 (Homo sapiens, UniProt Q13547)",
    "IC50 [nM]": 158
  },
  {
    "Molecule": "CCCCCCc1nc2cc(/C=C/C(=O)NO)ccc2n1CCNCC",
    "Experimental System": "Histone deacetylase 1 (Homo sapiens, UniProt Q13547)",
    "IC50 [nM]": 20
  },
  {
    "Molecule": "CC(C)Cc1nc2cc(/C=C/C(=O)NO)ccc2n1CC(C)(C)CN(C)C",
    "Experimental System": "Histone deacetylase 1 (Homo sapiens, UniProt Q13547)",
    "IC50 [nM]": 175
  },
  {
    "Molecule": "CCCCCc1nc2cc(/C=C/C(=O)NO)ccc2n1CCNC(C)C",
    "Experimental System": "Histone deacetylase 1 (Homo sapiens, UniProt Q13547)",
    "IC50 [nM]": 30
  }
]

[I] CCCCCCc1nc2cc(/C=C/C(=O)NO)ccc2n1CCNC
[II] CC(C)c1nc2cc(/C=C/C(=O)NO)ccc2n1CC(C)(C)CN(C)C
Which record would sort first by descending IC50, I or II ? Write down the label attached to your selection.
II
